- target system: Mu-type opioid receptor (Rattus norvegicus)
- Sequence (P33535 whole entry): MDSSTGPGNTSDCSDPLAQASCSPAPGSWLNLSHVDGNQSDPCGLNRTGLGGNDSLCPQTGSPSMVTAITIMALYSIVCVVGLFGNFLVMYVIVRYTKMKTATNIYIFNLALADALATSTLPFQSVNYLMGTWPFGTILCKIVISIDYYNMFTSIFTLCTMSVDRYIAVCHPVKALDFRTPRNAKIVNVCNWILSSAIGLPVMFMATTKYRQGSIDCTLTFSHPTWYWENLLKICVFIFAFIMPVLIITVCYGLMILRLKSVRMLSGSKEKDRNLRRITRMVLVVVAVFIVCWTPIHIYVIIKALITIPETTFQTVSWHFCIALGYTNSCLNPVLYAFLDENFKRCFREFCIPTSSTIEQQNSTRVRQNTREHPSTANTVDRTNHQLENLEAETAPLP
Where a SMILES comes first, the peptide text is derived from it.
observed property: Ki (nM)
Please reply with the bare figure in nM and do not write the unit itself.

So, `CC[C@H](C)[C@H](NC(=O)[C@H](CCCNC(=N)N)NC(=O)[C@H](CCCNC(=N)N)NC(=O)[C@H](CC(C)C)NC(=O)[C@H](Cc1ccccc1)NC(=O)[C@@H](C)NC(=O)CNC(=O)[C@@H](N)Cc1ccc(O)cc1)C(=O)N[C@@H](CCCNC(=N)N)C(=O)N1CCC[C@H]1C(=O)N[C@@H](CCCCN)C(N)=O` ? Its Ki was 19.8

So, `CC[C@H](C)[C@H](NC(=O)[C@H](CCCN=C(N)N)NC(=O)[C@H](CCCN=C(N)N)NC(=O)[C@@H]1CNC(=O)C[C@@H](NC(=O)[C@@H](N)Cc2ccc(O)cc2)C(=O)NCC(=O)N[C@@H](Cc2ccccc2)C(=O)N1)C(=O)N[C@@H](CCCN=C(N)N)C(=O)N1CCC[C@H]1C(=O)N[C@@H](CCCCN)C(N)=O` ? Its Ki was 0.52

So, `CC[C@H](C)[C@H](NC(=O)[C@H](CCCNC(=N)N)NC(=O)[C@H](CCCNC(=N)N)NC(=O)[C@H](CC(C)C)NC(=O)[C@H](Cc1ccccc1)NC(=O)[C@@H](Cc1c[nH]c2ccccc12)NC(=O)CNC(=O)[C@@H](N)Cc1ccc(O)cc1)C(=O)N[C@@H](CCCNC(=N)N)C(=O)N1CCC[C@H]1C(=O)N[C@@H](CCCCN)C(N)=O` ? Its Ki was 45.9

So, `CC[C@H](C)[C@H](NC(=O)[C@H](CCCN=C(N)N)NC(=O)[C@H](CCCN=C(N)N)NC(=O)[C@H](CN)NC(=O)[C@H](Cc1ccccc1)NC(=O)CNC(=O)[C@@H](CC(=O)O)NC(=O)[C@@H](N)Cc1ccc(O)cc1)C(=O)N[C@@H](CCCN=C(N)N)C(=O)N1CCC[C@H]1C(=O)N[C@@H](CCCCN)C(N)=O` ? Its Ki was 0.22

So, CC[C@H](C)[C@H](NC(=O)[C@H](CCCN=C(N)N)NC(=O)[C@H](CCCN=C(N)N)NC(=O)[C@@H]1CNC(=O)C[C@@H](NC(=O)[C@@H](N)Cc2ccc(O)cc2)C(=O)NCC(=O)N[C@@H](Cc2ccccc2)C(=O)N1)C(=O)N[C@@H](CCCN=C(N)N)C(=O)N1CCC[C@H]1C(=O)N[C@@H](CCCCN)C(=O)N[C@@H](CC(C)C)C(=O)N[C@@H](CCCCN)C(N)=O (HELM PEPTIDE1{Y.[dD].G.F.[O=C([C@H](CN[*:3])N[*:1])[*:2]].R.R.I.R.P.K.L.K.[am]}$PEPTIDE1,PEPTIDE1,2:R3-5:R3$$$V2.0) ? Its Ki was 1.17

So, `CC[C@H](C)[C@H](NC(=O)[C@H](CCCN=C(N)N)NC(=O)[C@H](CCCN=C(N)N)NC(=O)[C@H](CN)NC(=O)[C@H](Cc1ccccc1)NC(=O)CNC(=O)[C@@H](CC(=O)O)NC(=O)[C@@H](N)Cc1ccc(O)cc1)C(=O)N[C@@H](CCCN=C(N)N)C(=O)N1CCC[C@H]1C(=O)N[C@@H](CCCCN)C(=O)N[C@@H](CC(C)C)C(=O)N[C@@H](CCCCN)C(N)=O` ? Its Ki was 0.26

So, `CC[C@H](C)[C@H](NC(=O)[C@H](CCCNC(=N)N)NC(=O)[C@H](CCCNC(=N)N)NC(=O)[C@@H]1CNC(=O)C[C@@H](NC(=O)[C@@H](N)Cc2ccc(O)cc2)C(=O)N2CCC[C@H]2C(=O)N[C@@H](Cc2ccccc2)C(=O)N1)C(=O)N[C@@H](CCCNC(=N)N)C(=O)N1CCC[C@H]1C(=O)N[C@@H](CCCCN)C(N)=O` ? Its Ki was 125

So, `CC[C@H](C)[C@H](NC(=O)[C@H](CCCN=C(N)N)NC(=O)[C@H](CCCN=C(N)N)NC(=O)[C@H](CN)NC(=O)[C@H](Cc1ccccc1)NC(=O)[C@@H](C)NC(=O)[C@@H](CC(=O)O)NC(=O)[C@@H](N)Cc1ccc(O)cc1)C(=O)N[C@@H](CCCN=C(N)N)C(=O)N1CCC[C@H]1C(=O)N[C@@H](CCCCN)C(N)=O` ? Its Ki was 4.21

So, `CC[C@H](C)[C@H](NC(=O)[C@H](CCCN=C(N)N)NC(=O)[C@H](CCCN=C(N)N)NC(=O)[C@@H]1CNC(=O)C[C@@H](NC(=O)[C@@H](N)Cc2ccc(O)cc2)C(=O)N[C@H](Cc2c[nH]c3ccccc23)C(=O)N[C@@H](Cc2ccccc2)C(=O)N1)C(=O)N[C@@H](CCCN=C(N)N)C(=O)N1CCC[C@H]1C(=O)N[C@@H](CCCCN)C(N)=O` ? Its Ki was 7.27

So, `CC[C@H](C)[C@H](NC(=O)[C@H](CCCNC(=N)N)NC(=O)[C@H](CCCNC(=N)N)NC(=O)[C@H](CC(C)C)NC(=O)[C@H](Cc1ccccc1)NC(=O)[C@H](C)NC(=O)CNC(=O)[C@@H](N)Cc1ccc(O)cc1)C(=O)N[C@@H](CCCNC(=N)N)C(=O)N1CCC[C@H]1C(=O)N[C@@H](CCCCN)C(N)=O` ? Its Ki was 16.4

So, `CC[C@H](C)[C@H](NC(=O)[C@H](CCCN=C(N)N)NC(=O)[C@H](CCCN=C(N)N)NC(=O)[C@H](CC(C)C)NC(=O)[C@H](Cc1ccccc1)NC(=O)CNC(=O)CNC(=O)[C@@H](N)Cc1ccc(O)cc1)C(=O)N[C@@H](CCCN=C(N)N)C(=O)N1CCC[C@H]1C(=O)N[C@@H](CCCCN)C(=O)N[C@@H](CC(C)C)C(=O)N[C@@H](CCCCN)C(N)=O` ? Its Ki was 1.88

So, `CC[C@H](C)[C@H](NC(=O)[C@H](CCCN=C(N)N)NC(=O)[C@H](CCCN=C(N)N)NC(=O)[C@H](CN)NC(=O)[C@H](Cc1ccccc1)NC(=O)[C@H](C)NC(=O)[C@@H](CC(=O)O)NC(=O)[C@@H](N)Cc1ccc(O)cc1)C(=O)N[C@@H](CCCN=C(N)N)C(=O)N1CCC[C@H]1C(=O)N[C@@H](CCCCN)C(N)=O` ? Its Ki was 2.02
